target of assay: acetylcholine receptor
experimental protocol: SPR, AchR immobilized on CM5 chip, peptide at 10 µM
Threshold-based label: Binding affinity (RU) under 60 RU gives Condition met, Binding affinity (RU) not under 60 RU gives Condition not met.

> print(dat)
             binder        class.label
1  KRQRR [5mer-114]  Condition not met
2  RGFTK [5mer-443]  Condition not met
3  RSYQK [5mer-122]  Condition not met
4  KGQRK [5mer-133]  Condition not met
5  RRFLR [5mer-410]  Condition not met
6  KGYLK [5mer-404]  Condition not met
7  RLRYR [5mer-402]  Condition not met
8  RGLQK [5mer-446]      Condition met

Okay, next one:
Q. Please indicate whether the reported Binding affinity (RU) of RVYTR [5mer-419] is strictly below 60 RU.
A. Condition not met
